- Tested on: 898857-211-R-J1-PDC complex spheroids, growth % test/control;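 further: spheroids exposed to compound for seven days before readout; 100% = DMSO vehicle control wells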
- Method Summary: Anticancer human tumor 898857-211-R-J1-PDC patient-derived melanoma cell line growth inhibition [RAS]
- Test Context: second compound 0.0949 µM; first compound 0.1 µM; hits give low values
- Source text: RAS pathway inhibitors in Combinations in Complex Spheroids A high-throughput screen of multi-cell type tumor spheroids was designed to identify active combinations of RAS pathway inhibitors and targeted small molecules. Complex spheroids include a stromal component modeled by human endothelial cells (HUVEC) and fibroblasts modeled by human mesenchymal stem cells (MSCs). […] Compounds. […] If the clinical Cmax for an agent had not been determined, the highest concentration tested was 10 microM. […]
Result Type: viability, T/C (%)
All answers are understood in %, so give the number only.

Solved entries (count: 5):
| Compound | Target Of Assay | Unit Abbreviation | Test Result |
| --- | --- | --- | --- |
| CCN1CCN(Cc2ccc(Nc3ncc(F)c(-c4cc(F)c5nc(C)n(C(C)C)c5c4)n3)nc2)CC1 + CCn1c(-c2cc(N3CCN(C)CC3)cnc2C(C)OC)c2c3cc(ccc31)-c1csc(n1)CC(NC(=O)C1CC1C)C(=O)N1CCCC(N1)C(=O)OCC(C)(C)C2 | 898857-211-R-J1-PDC complex spheroids, growth % test/control | % | 64.3 |
| CC(C)n1nc(-c2ccc3oc(N)nc3c2)c2c(N)ncnc21 + CCn1c(-c2cccnc2C(C)OC)c2c3cc(ccc31)N1CCOC(CC(NC(=O)C(C(C)C)N(C)C(=O)C3(F)CCN(C(=O)C#CC(C)(C)N(C)C)CC3)C(=O)N3CCCC(N3)C(=O)OCC(C)(C)C2)C1 | 898857-211-R-J1-PDC complex spheroids, growth % test/control | % | 16.2 |
| CC(=O)OC12COC1CC(O)C1(C)C(=O)C(O)C3=C(C)C(OC(=O)C(O)C(NC(=O)OC(C)(C)C)c4ccccc4)CC(O)(C(OC(=O)c4ccccc4)C21)C3(C)C (stereo not given) + CCn1c(-c2cccnc2C(C)OC)c2c3cc(ccc31)N1CCOC(CC(NC(=O)C(C(C)C)N(C)C(=O)C3(F)CCN(C(=O)C#CC(C)(C)N(C)C)CC3)C(=O)N3CCCC(N3)C(=O)OCC(C)(C)C2)C1 | 898857-211-R-J1-PDC complex spheroids, growth % test/control | % | 10.2 |
| O=C(c1ccc(F)c(F)c1Nc1ccc(I)cc1F)N1CC(O)([C@@H]2CCCCN2)C1 + CCn1c(-c2cccnc2C(C)OC)c2c3cc(ccc31)N1CCOC(CC(NC(=O)C(C(C)C)N(C)C(=O)C3(F)CCN(C(=O)C#CC(C)(C)N(C)C)CC3)C(=O)N3CCCC(N3)C(=O)OCC(C)(C)C2)C1 | 898857-211-R-J1-PDC complex spheroids, growth % test/control | % | 18.2 |
| Nc1ccn(C2OC(CO)C(O)C2(F)F)c(=O)n1 (stereo not given) + CCn1c(-c2cc(N3CCN(C)CC3)cnc2C(C)OC)c2c3cc(ccc31)-c1csc(n1)CC(NC(=O)C1CC1C)C(=O)N1CCCC(N1)C(=O)OCC(C)(C)C2 | 898857-211-R-J1-PDC complex spheroids, growth % test/control | % | 4.59 |

Tested system 898857-211-R-J1-PDC complex spheroids, growth % test/control; viability, T/C recorded for CCC(CC)c1cc(NC2CCC(N)C2)n2nccc2n1 (stereo not given) + CCn1c(-c2cccnc2C(C)OC)c2c3cc(ccc31)N1CCOC(CC(NC(=O)C(C(C)C)N(C)C(=O)C3(F)CCN(C(=O)C#CC(C)(C)N(C)C)CC3)C(=O)N3CCCC(N3)C(=O)OCC(C)(C)C2)C1 was 105

Tested system 898857-211-R-J1-PDC complex spheroids, growth % test/control; viability, T/C recorded for CC(C)NCC(C(=O)N1CCN(c2ncnc3c2C(C)CC3O)CC1)c1ccc(Cl)cc1 (stereo not given) + CCn1c(-c2cccnc2C(C)OC)c2c3cc(ccc31)N1CCOC(CC(NC(=O)C(C(C)C)N(C)C(=O)C3(F)CCN(C(=O)C#CC(C)(C)N(C)C)CC3)C(=O)N3CCCC(N3)C(=O)OCC(C)(C)C2)C1 was 89.4
